target: CBL-B (residues 36-427) (Homo sapiens); construct: Purified CBL-B (residues 36-427) and C-CBL (residues 46-435) proteins from baculovirus-infected insect cells; made in house; host or cells: baculovirus-infected insect cells; assay: Ligand Displacement Assay (LDA), HTRF competitive binding against BODIPY-labeled fluorescent tracer, CBL-B; details: geometric mean of the number of tests, read-out: CBL-B Ki (nM) GMean
value.type: Ki (nM)
Numbers only here, please. The scale is nM.

Recorded Ki of CC(NC[C@H](C)O)c1nccc2c(-c3cccc([C@H](c4nncn4C)C4CCC4)c3)n[nH]c12 (single isomer, unassigned) [Example C125] , please.
12.2

Returns the measured Ki for the input molecule. Input: CC(c1nc(C(F)(F)F)cc2c(-c3cccc(C4(Cc5nncn5C)COC4)c3)n[nH]c12)N1CCOCC1 (single isomer, unassigned) [Example C24]
28.3

Please report the recorded Ki for Cn1cnnc1CC1(c2cccc(-c3n[nH]c4c(CN5CC(F)(F)C5)nc(C(F)(F)F)cc34)c2)COC1 .
34.5

Ki for Cn1cnnc1CC1(c2cccc(-c3n[nH]c4c(OC5CCCC5)nc(C(F)(F)F)cc34)c2)COC1 ?
92

So what's the measured Ki for this one? CC[C@H](c1cccc(-c2n[nH]c3c([C@H](C)NC[C@H](C)O)nc(C(F)(F)F)cc23)c1)c1nncn1C (single isomer, unassigned)
0.7

GET /values?readout=Ki&item= Cn1cnnc1[C@@H](c1cccc(-c2n[nH]c3c(CN[C@@H]4CCC[C@@H]4O)nc(C(F)(F)F)cc23)c1)C1CCC1
0.6

Request the reported Ki associated with CC(NC1CC(F)(F)C1)c1nc(C(F)(F)F)cc2c(-c3cccc(C4(Cc5nncn5C)COC4)c3)n[nH]c12 (single isomer, unassigned) [Example C93]
3.6

Dear colleague, I am looking for the recorded Ki of the following molecule: Cn1cnnc1CC1(c2cccc(-c3n[nH]c4c(CNC5CCC5)nc(C(F)(F)F)cc34)c2)COC1
18.9

Reported Ki for C[C@@H]1CCCN([C@H](C)c2nc(C(F)(F)F)cc3c(-c4cccc(C5(Cc6nncn6C)COC5)c4)n[nH]c23)C1 (single isomer, unassigned) : what is it?
42.9

Dear colleague, I am looking for the recorded Ki of the following molecule: Cn1cnnc1CC1(c2cccc(-c3n[nH]c4c(OCCN)nc(C(F)(F)F)cc34)c2)COC1
16.7

Please report the recorded Ki for CC(NC1CNC1)c1nc(C(F)(F)F)cc2c(-c3cccc(C4(Cc5nncn5C)COC4)c3)n[nH]c12 (single isomer, unassigned) [Example C28] .
33.4

Recorded Ki for C[C@H](NC(C)(C)CO)c1nc(C(F)(F)F)cc2c(-c3cccc([C@H](c4nncn4C)C4CCC4)c3)n[nH]c12 (single isomer, unassigned) , please?
1.4
